# assayedTarget: Gal(b1-4)GalNAc(a1-3)[Fuc(a1-2)]Gal(b1-4)GlcNAc
# test: glycan array binding signal (z-score within array); higher = stronger binding
# particulars: glycan notation: IUPAC condensed, linker removed
This excerpt belongs to a sample that is enriched for the strongest signals.
measurementKind: glycan array binding signal (z-score)
The response must contain the number and no unit.

Below, each entry is followed by its recorded glycan array binding signal (z-score) result.
{"binder": "GS13455A-bfa-343-25-343 (Bacteroides fragilis) (protein) KDEIQIVDQDTSWQMDNKYIEEDIREQLGIDPFTDLVYLGYYGNPYTQLEAINDLVNTTLVGKNELSFKVKVTKPYKEDIKVNLMKEDKLVTDFPEMAEGIPLFPSENCTFEGGVLKAGELETTVKLTLKDVEKLNNLSGYVMAIKLTMEGSHEHLAIARTRSSYFVKLNLSIRLDNIDSSNKKIEGKGFNKEISFKSDIRPDKLGSLNDGNFTANNWYTSNANNYLTIILPEKQSLKGFRLDTNTSPSGSYMLKSCRVMVETPDGNWVNHGVFDRKSMDGIAYISFKKPVECTKVRFENMMAFNGRFSVDVNEVTAFR", "glycan array binding signal (z-score)": -0.716}
{"binder": "Mermaid1 (Stilbonema majum) (protein) MGSSHHHHHHSSGLVPRGSHMAASGWLRSPQGTVVKLYRRSLSWSKADEFCKDVDGRLVVDRTADMHLFLIKNVLKEKKSRVWVGLRRTAPHSRTWIWSDGTRQNEDDLDANLWLRDEPNDAAGEEECALFMYSPWEKAWGLNDYLCRGGCRSYQFICEKWIR", "glycan array binding signal (z-score)": 1.62}

# input for lookup
Form field glycan array binding signal (z-score), entry SLLPI (Homo sapiens), Q8IXA5 (protein) MVSALRGAPLIRVHSSPVSSPSVSGPRRLVSCLSSQSSALSQSGGGSTSAAGIEARSRALRRRWCPAGIMLLALVCLLSCLLPSSEAKLYGRCELARVLHDFGLDGYRGYSLADWVCLAYFTSGFNAAALDYEADGSTNNGIFQINSRRWCSNLTPNVPNVCRMYCSDLLNPNLKDTVICAMKITQEPQGLGYWEAWRHHCQGKDLTEWVDGCDF : -0.332
